Test: Clearance in dog at 0.5 mg/kg, po or 0.4 mg/kg, iv administered in cassette format
Format: ADME, organism-based, Canis lupus familiaris
Conditions: in vivo
readout.label: clearance (mL/min/kg)

{"columns": ["record.smiles", "readout.label", "value.reported"],
 "data": [
  ["COc1cc(F)c(C(=O)N[C@@H](Cc2ccccc2)c2nc(-c3ccc4c(N)n[nH]c4c3)c(Cl)[nH]2)c(F)c1", "clearance", 15.2]
]}

A: Nc1n[nH]c2cc(-c3nc([C@H](Cc4ccccc4)NC(=O)NCc4cc(Cl)ccc4-n4cnnn4)[nH]c3Cl)ccc12
B: Cc1ccc(C(=O)N[C@@H](Cc2ccccc2)c2nc(-c3ccc4c(N)n[nH]c4c3)c(Cl)[nH]2)c(F)c1
Which of these two has the smaller recorded clearance: A or B ? Your answer should be the label attached to the chosen record. B
(B: 9 mL/min/kg, A: 31.2 mL/min/kg)

----------
Assay: Clearance in dog at 1 mg/kg, po or 0.4 mg/kg, iv administered in discrete format
Format: ADME, organism-based, Canis lupus familiaris
Details: in vivo
readout.label: clearance (mL/min/kg)
# value in mL/min/kg; strip the unit string

Tell me clearance reported for NC[C@H]1CC[C@H](C(=O)N[C@@H](Cc2ccccc2)c2nc(-c3ccc4c(N)n[nH]c4c3)c(Cl)[nH]2)CC1 11.2

----------
Target: Coagulation factor XI (Homo sapiens, UniProt P03951)
Sequence (P03951 19-387 limits assumed): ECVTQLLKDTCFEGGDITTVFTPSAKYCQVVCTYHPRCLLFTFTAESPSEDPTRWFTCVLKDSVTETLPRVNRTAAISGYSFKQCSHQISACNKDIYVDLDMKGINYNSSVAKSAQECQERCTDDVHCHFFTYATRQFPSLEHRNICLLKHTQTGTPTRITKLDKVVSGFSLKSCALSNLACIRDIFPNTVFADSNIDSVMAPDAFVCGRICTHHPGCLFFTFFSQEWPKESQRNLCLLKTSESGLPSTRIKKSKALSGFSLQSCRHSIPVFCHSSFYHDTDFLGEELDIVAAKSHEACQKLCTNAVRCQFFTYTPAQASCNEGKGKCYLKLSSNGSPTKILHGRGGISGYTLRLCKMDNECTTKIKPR
Sequence (P03951 388-625 limits assumed): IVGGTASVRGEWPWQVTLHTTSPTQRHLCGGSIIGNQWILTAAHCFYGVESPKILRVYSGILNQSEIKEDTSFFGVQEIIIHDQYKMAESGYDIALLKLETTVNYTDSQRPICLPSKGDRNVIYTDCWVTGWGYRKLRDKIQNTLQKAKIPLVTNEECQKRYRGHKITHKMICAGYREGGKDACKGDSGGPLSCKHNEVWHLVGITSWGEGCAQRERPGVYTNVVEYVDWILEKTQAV
Assay: Inhibition of human coagulation factor 11a at 25 degC
pKi: −log10 of the molar value.
readout.label: pKi

{"columns": ["compound", "pKi"],
 "data": [
  ["Nc1n[nH]c2cc(-c3nc([C@H](Cc4ccccc4)NC(=O)NCc4c(F)ccc(Cl)c4F)[nH]c3Cl)ccc12", 7.64],
  ["COc1ccc(Cl)cc1CNC(=O)N[C@@H](Cc1ccccc1)c1nc(-c2ccc3c(N)n[nH]c3c2)c(Cl)[nH]1", 7.12],
  ["Cc1ccc(C(=O)N[C@@H](Cc2ccccc2)c2nc(-c3ccc4c(N)n[nH]c4c3)c(Cl)[nH]2)cc1", 6.41],
  ["Nc1nccc2c1CCC(C(=O)N[C@@H](Cc1ccccc1)c1nc(-c3ccc4c(N)n[nH]c4c3)c(Cl)[nH]1)C2 (stereo in doubt; 6)", 8.67],
  ["COC(=O)Nc1ccc(-c2nc([C@H](Cc3ccccc3)NC(=O)/C=C/c3cc(Cl)ccc3-n3cnnn3)[nH]c2Cl)cc1", 8.57]
]}

1: Nc1n[nH]c2cc(-c3nc([C@H](Cc4ccccc4)NC(=O)NCc4cc(Cl)ccc4C(F)(F)F)[nH]c3Cl)ccc12
2: NCc1ccc(Cl)cc1CNC(=O)N[C@@H](Cc1ccccc1)c1nc(-c2ccc3c(N)n[nH]c3c2)c(Cl)[nH]1
Between the entries labelled 1 and 2 , which has a larger pKi value on record? Your answer should be the label attached to the chosen record. 2

----------
Assay: Oral bioavailability in dog at 0.5 mg/kg administered in cassette format
Type: ADME, organism-based, Canis lupus familiaris
Conditions: in vivo
readout.label: bioavailability (%)

Answered cases to consult:
{"columns": ["record.smiles", "readout.units", "value.reported"],
 "data": [
  ["COc1cc(F)c(C(=O)N[C@@H](Cc2ccccc2)c2nc(-c3ccc4c(N)n[nH]c4c3)c(Cl)[nH]2)c(F)c1", "%", 49],
  ["Nc1n[nH]c2cc(-c3nc([C@H](Cc4ccccc4)NC(=O)NCc4cc(Cl)ccc4-n4cnnn4)[nH]c3Cl)ccc12", "%", 0],
  ["NC(=O)c1ccc(C(=O)N[C@@H](Cc2ccccc2)c2nc(-c3ccc4c(N)n[nH]c4c3)c(Cl)[nH]2)cc1", "%", 26]
]}

1: Nc1n[nH]c2cc(-c3nc([C@H](Cc4ccccc4)NC(=O)/C=C/c4cc(Cl)ccc4-n4cnnn4)[nH]c3Cl)ccc12
2: Cc1ccc(C(=O)N[C@@H](Cc2ccccc2)c2nc(-c3ccc4c(N)n[nH]c4c3)c(Cl)[nH]2)c(F)c1
3: COC(=O)Nc1ccc(-c2c[nH]c([C@H](Cc3ccccc3)NC(=O)/C=C/c3cc(Cl)ccc3-n3cnnn3)n2)cc1
4: COC(=O)Nc1ccc(-c2nc([C@H](Cc3ccccc3)NC(=O)/C=C/c3cc(Cl)ccc3-n3cnnn3)[nH]c2Cl)cc1
Order the entries by their reported bioavailability, beginning at the minimum. The response must list the labels following the requested ordering. 1, 4, 3, 2
